target: human ether-à-go-go-related gene (hERG) potassium channel (human)
Sequence (Q12809 whole entry, looked up): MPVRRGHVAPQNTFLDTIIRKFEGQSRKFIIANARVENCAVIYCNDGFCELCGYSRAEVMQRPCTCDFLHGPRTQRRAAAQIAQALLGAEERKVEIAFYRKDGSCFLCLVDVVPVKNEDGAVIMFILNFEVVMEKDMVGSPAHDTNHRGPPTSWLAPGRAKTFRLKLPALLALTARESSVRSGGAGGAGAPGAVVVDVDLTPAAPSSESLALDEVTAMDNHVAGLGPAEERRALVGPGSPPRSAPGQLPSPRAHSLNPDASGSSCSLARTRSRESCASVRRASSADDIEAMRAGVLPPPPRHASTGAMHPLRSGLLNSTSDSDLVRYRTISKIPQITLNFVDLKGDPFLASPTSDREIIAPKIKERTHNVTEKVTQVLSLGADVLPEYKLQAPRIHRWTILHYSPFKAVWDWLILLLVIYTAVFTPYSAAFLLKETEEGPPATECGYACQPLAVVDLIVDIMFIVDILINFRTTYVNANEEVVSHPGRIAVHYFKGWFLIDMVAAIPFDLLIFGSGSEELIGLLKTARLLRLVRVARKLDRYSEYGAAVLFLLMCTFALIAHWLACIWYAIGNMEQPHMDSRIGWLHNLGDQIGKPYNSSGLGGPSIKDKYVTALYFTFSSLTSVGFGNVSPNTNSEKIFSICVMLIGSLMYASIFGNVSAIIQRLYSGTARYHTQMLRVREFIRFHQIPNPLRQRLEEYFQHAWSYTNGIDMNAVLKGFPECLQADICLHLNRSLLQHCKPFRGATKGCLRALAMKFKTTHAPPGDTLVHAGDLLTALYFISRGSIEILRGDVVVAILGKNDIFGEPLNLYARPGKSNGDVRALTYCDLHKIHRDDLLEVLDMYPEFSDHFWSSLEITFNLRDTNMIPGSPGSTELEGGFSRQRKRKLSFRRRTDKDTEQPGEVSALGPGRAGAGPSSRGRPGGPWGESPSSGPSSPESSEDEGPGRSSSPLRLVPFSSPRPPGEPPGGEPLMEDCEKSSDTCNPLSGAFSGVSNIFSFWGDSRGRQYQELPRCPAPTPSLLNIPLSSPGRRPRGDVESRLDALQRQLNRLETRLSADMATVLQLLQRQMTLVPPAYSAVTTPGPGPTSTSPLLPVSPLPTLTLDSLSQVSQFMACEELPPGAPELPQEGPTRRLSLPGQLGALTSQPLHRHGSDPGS
test_name: primary screen, population patch clamp on CHO cells stably expressing hERG; higher = less effect of the substance
From the text: Briefly, Chinese hamster ovary (CHO) cells stably expressing the hERG channel were dislodged from tissue culture flasks and dispensed into PPC plates. […] Small molecule effects on hERG current density were quantified by […].
Out of some 310,000 compounds screened, about 2,200 (0.71%) showed an effect of 50% or more. Effects have a minus sign here. Shown is part of a subset that was picked to be rich in strong results.
Given measured hERG current change (%, negative = inhibition) at 1uM, output t if it is greater than or equal to -10% and f if not.

{"columns": ["compound", "assigned_label"],
 "data": [
  ["CCOC(=O)c1c(NC(=O)CN2CCOCC2)sc2c1CC(C)(C)OC2", "t"],
  ["C=CCn1c(SCC(=O)N2CCc3ccccc3C2)nc2sc(CC)cc2c1=O", "t"],
  ["Cc1ccc(CNC(=O)COc2ccc3c(c2)CCC3)cc1", "t"],
  ["Oc1ccccc1N1CCN(Cc2ncc(-c3ccccc3)o2)CC1", "t"],
  ["Cc1ccc(C2C(=O)N(C3CCC(C)CC3)CC(=O)N2C2CCCC2)cc1 (stereo not drawn)", "f"]
]}

Is hERG current change (%, negative = inhibition) at 1uM for "Nc1nc2ccc(-c3nc4ccccc4o3)cc2s1" at or above -10%?
t

Determine whether measured hERG current change (%, negative = inhibition) at 1uM meets or exceeds -10% for "CC(=O)c1c(N2CCN(c3ccc(F)cc3)CC2)nc(=S)n(-c2ccccc2)c1C"
f

Tell me whether hERG current change (%, negative = inhibition) at 1uM is at least -10% here: "CN1CCCc2cc3c(C(F)(F)F)cc(=O)oc3nc21"
t

Say whether "CCOC(=O)C1(CCOc2ccccc2)CCN(Cc2cc(OC)cc(OC)c2)CC1" shows hERG current change (%, negative = inhibition) at 1uM of -10% or more.
f

Hi, just wondering whether "CC(=O)c1c(N2CCN(c3ccccc3)CC2)nc(=S)n(-c2ccccc2)c1C" shows hERG current change (%, negative = inhibition) at 1uM of -10% or higher.
t

Form field: hERG current change (%, negative = inhibition) at 1uM at least -10%? Entry: CCOc1ccc(C(C)NC(=O)Cc2ccccc2)cc1OCC (stereo not drawn)
t

Identify whether the reported hERG current change (%, negative = inhibition) at 1uM of the following compound is -10% or greater: "C=CCn1c(SCC(=O)N2CCCC2=O)nc2sc(CC)cc2c1=O"
f

Hi team, for "O=C(/C=C/c1ccccc1)NC(=S)Nc1ncccn1" , is the recorded hERG current change (%, negative = inhibition) at 1uM at or above -10%?
t

Is the recorded value of hERG current change (%, negative = inhibition) at 1uM equal to or greater than -10% for this compound? "Cc1cccn2c(=O)c(C=Nc3ccccc3)c(NCCO)nc12"
t

Is hERG current change (%, negative = inhibition) at 1uM for "COc1ccccc1NC(=O)CSc1nnnn1C" at or above -10%?
t

Decide: hERG current change (%, negative = inhibition) at 1uM of "CCCCn1c(SCC(=O)N2CCOCC2)nc2ccccc2c1=O" >= -10%?
f

Say whether "COC(=O)c1ccc(NC(=S)NC(=O)c2cc(-c3ccccc3)nc3ccccc23)cc1" shows hERG current change (%, negative = inhibition) at 1uM of -10% or more.
t

Check if hERG current change (%, negative = inhibition) at 1uM >= -10% (inclusive). Item: "CC(C)(C)n1nc2c(c1NC(=O)c1ccc(C(F)(F)F)cc1)CS(=O)(=O)C2"
t
